# EXPERIMENTAL_PROTOCOL: Single-dose two-period crossover bioequivalence study, fasting: plasma pharmacokinetics of lisinopril and amlodipine (LC-MS/MS, NCA);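 further: single tablet dose 10 mg/5 mg fixed combination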
# CONDITION_PARAMETERS: human, plasma, po, Plasma concentration of amlodipine, Mean, reference (R) tablets, nominal time 7 h, mean of subjects
METRIC: concentration at 7 h

>>> experimental_value("CCOC(=O)C1=C(COCCN)NC(C)=C(C(=O)OC)C1c1ccccc1Cl (stereo not shown)")
"2.04 ng/mL"

* * *

# EXPERIMENTAL_PROTOCOL: Single-dose two-period crossover bioequivalence study, fed (high-fat breakfast): plasma pharmacokinetics of lisinopril and amlodipine (LC-MS/MS, NCA)
# CONDITION_PARAMETERS: human, plasma, po, Plasma concentration of lisinopril, Max, maximum among subjects, nominal time 1 h, reference (R) tablets
METRIC: concentration at 1 h

>>> experimental_value("NCCCC[C@H](N[C@@H](CCc1ccccc1)C(=O)O)C(=O)N1CCC[C@H]1C(=O)O")
"3.22 ng/mL"

* * *

# EXPERIMENTAL_PROTOCOL: Single-dose two-period crossover bioequivalence study, fed (high-fat breakfast): plasma pharmacokinetics of lisinopril and amlodipine (LC-MS/MS, NCA)
# CONDITION_PARAMETERS: human, plasma, po, Plasma concentration of lisinopril, Min, minimum among subjects, nominal time 2 h, reference (R) tablets
METRIC: concentration at 2 h (ng/mL)

>>> experimental_value("NCCCC[C@H](N[C@@H](CCc1ccccc1)C(=O)O)C(=O)N1CCC[C@H]1C(=O)O [lisinopril]")
0

* * *

# EXPERIMENTAL_PROTOCOL: Single-dose two-period crossover bioequivalence study, fed (high-fat breakfast): plasma pharmacokinetics of lisinopril and amlodipine (LC-MS/MS, NCA)
# CONDITION_PARAMETERS: human, plasma, po, Plasma concentration of lisinopril, Max, maximum among subjects, nominal time 96 h, reference (R) tablets
METRIC: concentration at 96 h

>>> experimental_value("NCCCC[C@H](N[C@@H](CCc1ccccc1)C(=O)O)C(=O)N1CCC[C@H]1C(=O)O")
"2.72 ng/mL"

* * *

# EXPERIMENTAL_PROTOCOL: Single-dose two-period crossover bioequivalence study, fed (high-fat breakfast): plasma pharmacokinetics of lisinopril and amlodipine (LC-MS/MS, NCA)
# CONDITION_PARAMETERS: human, plasma, po, Plasma concentration of lisinopril, Max, maximum among subjects, nominal time 7 h, reference (R) tablets
METRIC: concentration at 7 h (ng/mL)

>>> experimental_value("NCCCC[C@H](N[C@@H](CCc1ccccc1)C(=O)O)C(=O)N1CCC[C@H]1C(=O)O")
29.8

* * *

# EXPERIMENTAL_PROTOCOL: Single-dose two-period crossover bioequivalence study, fasting: plasma pharmacokinetics of lisinopril and amlodipine (LC-MS/MS, NCA);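 further: single tablet dose 10 mg/5 mg fixed combination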
# CONDITION_PARAMETERS: human, plasma, po, Plasma concentration of amlodipine, Min, reference (R) tablets, nominal time 11 h, minimum over subjects
METRIC: concentration at 11 h (ng/mL)

>>> experimental_value("CCOC(=O)C1=C(COCCN)NC(C)=C(C(=O)OC)C1c1ccccc1Cl (stereo not shown)")
0.82

* * *

# EXPERIMENTAL_PROTOCOL: Single-dose two-period crossover bioequivalence study, fasting: plasma pharmacokinetics of lisinopril and amlodipine (LC-MS/MS, NCA);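 further: single tablet dose 10 mg/5 mg fixed combination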
# CONDITION_PARAMETERS: human, plasma, po, Plasma concentration of amlodipine, Min, reference (R) tablets, nominal time 4 h, minimum over subjects
METRIC: concentration at 4 h (ng/mL)

>>> experimental_value("CCOC(=O)C1=C(COCCN)NC(C)=C(C(=O)OC)C1c1ccccc1Cl (stereo not shown) [amlodipine]")
0.834
